Experimental Target: Nuclear receptor ROR-gamma (Homo sapiens)
Procedure Text: qHTS assay to identify small molecule antagonists of the retinoid-related orphan receptor gamma (ROR-gamma) signaling pathway (AID 1159521; note: nearly all actives have a fitted effect of over 50% in size)
Condition Info: Tet-on RORgamma CHO cells, RORE-luciferase, 16 h; series mostly up to 92.4 µM
Experimental: U.S. Tox21 Program National Center for Advancing Translational Sciences [NCATS] NIH Chemical Genomics Center [NCGC] U.S. Environmental Protection Agency [EPA] National Institutes of Environmental Health Sciences [NIEHS] National Toxicology Program [NTP] U.S. Food and Drug Administration [FDA] […] Reporter gene activity was induced using Doxycycline Hyclate and measured after 16 hr incubation. […]
Records with an inconclusive call do not appear. Activity calls are given as the source filed them. Calls come from the whole dose curve; as a rule, active = well fitted inhibition curve with a large enough effect in the repeat runs; inconclusive = weak or mixed curves, or effect the other way; inactive = no such curve, though single readings can be large or run the other way.
// allowed return values: 1 (yes) = active, 0 (no) = inactive

CC(N)=O; 0 (no)
O=C(O)CP(=O)(O)O; 0 (no)
C=CC(=O)OCCCCCCCC; 0 (no)
[Cl][In]([Cl])[Cl]; 0 (no)
CO[Si](OC)(OC)c1ccccc1; 0 (no)

Query: Please share the test call associated with COC(c1ccccc1)(c1ccccc1)[C@H](Oc1nc(C)cc(C)n1)C(=O)O .
Result: 0 (no)

Query: Please share the test call associated with Nc1ccc2cc3ccccc3cc2c1 .
Result: 0 (no)

Query: Please share the test call associated with CCCCOCCOC(=O)c1ccccc1C(=O)OCCOCCCC .
Result: 0 (no)

Query: Please share the test call associated with C1COC(NC(C2CC2)C2CC2)=N1 .
Result: 0 (no)

Query: Please share the test call associated with CC(C)(C)NC(=O)[C@@H]1CN(Cc2cccnc2)CCN1C[C@@H](O)C[C@@H](Cc1ccccc1)C(=O)N[C@H]1c2ccccc2C[C@H]1O .
Result: 0 (no)

Query: Please share the test call associated with CC(=O)N[C@@H](CS)C(=O)O .
Result: 0 (no)

Query: Please share the test call associated with CCCOC(=O)c1cc(O)c(O)c(O)c1 .
Result: 1 (yes)

Query: Please share the test call associated with CC(=O)CC(C)=O .
Result: 0 (no)

Query: Please share the test call associated with C=CS(=O)(=O)O .
Result: 0 (no)

Query: Please share the test call associated with COc1nc(C)nc(Cl)c1NC1=NCCN1 .
Result: 0 (no)

Query: Please share the test call associated with COC(=O)c1cccc(C(=O)OC)c1 .
Result: 0 (no)

Query: Please share the test call associated with CC1=C(C=O)C(C)(C)CC=C1 .
Result: 0 (no)

Query: Please share the test call associated with NCCO .
Result: 0 (no)

Query: Please share the test call associated with CCn1c2ccccc2c2cc(N)ccc21 .
Result: 1 (yes)

Query: Please share the test call associated with CC(=O)O[C@]1(C(C)=O)CC[C@H]2[C@@H]3C[C@H](C)C4=CC(=O)CC[C@]4(C)[C@H]3CC[C@@]21C .
Result: 1 (yes)

Query: Please share the test call associated with C/C=C/c1ccc(OCC)c(O)c1 .
Result: 0 (no)

Query: Please share the test call associated with N[C@@H]1CONC1=O .
Result: 0 (no)

Query: Please share the test call associated with CCC(C)(Oc1ccc(C2(c3ccc(OC(C)(CC)C(=O)O)cc3)CCCCC2)cc1)C(=O)O (stereo not drawn) .
Result: 0 (no)

This collection of values is drawn from PubChem BioAssay (Tox21).
